# assayed_target: Melanocortin receptor 3 (Homo sapiens); also: assay procedure not described here
# Sequence (P41968 whole entry): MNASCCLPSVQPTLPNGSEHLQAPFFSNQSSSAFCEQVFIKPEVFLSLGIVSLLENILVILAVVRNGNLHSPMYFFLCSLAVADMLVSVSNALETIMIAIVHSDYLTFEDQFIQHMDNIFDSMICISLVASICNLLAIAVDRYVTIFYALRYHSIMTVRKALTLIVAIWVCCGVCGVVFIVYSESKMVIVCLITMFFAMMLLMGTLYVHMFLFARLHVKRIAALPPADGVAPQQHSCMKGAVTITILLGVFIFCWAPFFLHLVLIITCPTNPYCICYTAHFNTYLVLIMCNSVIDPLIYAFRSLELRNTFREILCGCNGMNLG
AC50 listing for selected compounds.
value_kind: AC50

compound="CCN1CCC[C@H]1CNC(=O)c1cc(S(N)(=O)=O)ccc1OC [LEVOSULPIRIDE]" value_kind=AC50 recorded_result="> 30 µM"
compound=CCCS(=O)(=O)Nc1ccc(F)c(C(=O)c2c[nH]c3ncc(-c4ccc(Cl)cc4)cc23)c1F value_kind=AC50 recorded_result="> 30 µM"
compound=CCCC(CCC)C(=O)O[C@H]1C[C@H]2CC[C@@H](C1)[N+]2(C)C value_kind=AC50 recorded_result="> 30 µM"
compound=Cc1c(O)c(=O)ccn1C value_kind=AC50 recorded_result="> 30 µM"
compound=C[N+](C)(C)CCOC(N)=O value_kind=AC50 recorded_result="> 10 µM"

* * *

AC50 tested on Histamine H1 receptor (Homo sapiens, UniProt P35367): recorded values; also: assay procedure not described here
Sequence (P35367 whole entry): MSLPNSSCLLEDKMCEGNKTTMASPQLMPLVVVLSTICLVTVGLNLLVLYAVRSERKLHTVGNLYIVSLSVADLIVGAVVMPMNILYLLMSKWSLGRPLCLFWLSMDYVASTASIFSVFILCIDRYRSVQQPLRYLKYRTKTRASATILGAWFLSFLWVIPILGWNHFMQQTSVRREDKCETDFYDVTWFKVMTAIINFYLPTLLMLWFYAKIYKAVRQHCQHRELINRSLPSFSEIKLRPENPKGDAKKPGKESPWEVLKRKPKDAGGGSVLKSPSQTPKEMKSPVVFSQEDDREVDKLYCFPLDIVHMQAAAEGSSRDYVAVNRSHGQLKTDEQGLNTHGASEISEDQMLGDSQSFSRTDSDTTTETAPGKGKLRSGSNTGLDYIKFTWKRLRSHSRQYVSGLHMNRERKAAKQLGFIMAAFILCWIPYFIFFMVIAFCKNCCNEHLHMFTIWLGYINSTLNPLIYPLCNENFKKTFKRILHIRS
value_kind: AC50

compound="COc1ccc2c(c1)C(=O)N(CCc1ccc(S(=O)(=O)NC(=O)NC3CCCCC3)cc1)C(=O)C2(C)C [GLIQUIDONE]" assayed_target="Histamine H1 receptor (Homo sapiens, UniProt P35367)" value_kind=AC50 recorded_result="> 30 µM"
compound="CCCCC(C)(O)C/C=C/[C@H]1[C@H](O)CC(=O)[C@@H]1CCCCCCC(=O)OC (stereo partly drawn) [MISOPROSTOL]" assayed_target="Histamine H1 receptor (Homo sapiens, UniProt P35367)" value_kind=AC50 recorded_result="> 30 µM"
compound="COc1cc2c(cc1OC)C(=O)C(CC1CCN(Cc3ccccc3)CC1)C2 (stereo not drawn) [DONEPEZIL]" assayed_target="Histamine H1 receptor (Homo sapiens, UniProt P35367)" value_kind=AC50 recorded_result="> 10 µM"
compound="COc1ccc2cccc(CCNC(C)=O)c2c1 [AGOMELATINE]" assayed_target="Histamine H1 receptor (Homo sapiens, UniProt P35367)" value_kind=AC50 recorded_result="> 10 µM"
compound="Cc1c(Cl)cccc1Nc1ccccc1C(=O)O [TOLFENAMIC ACID]" assayed_target="Histamine H1 receptor (Homo sapiens, UniProt P35367)" value_kind=AC50 recorded_result="> 30 µM"
compound="Cc1ccc(C(=O)c2cc(O)c(O)c([N+](=O)[O-])c2)cc1 [TOLCAPONE]" assayed_target="Histamine H1 receptor (Homo sapiens, UniProt P35367)" value_kind=AC50 recorded_result="> 10 µM"
compound="CCCCCCCCOc1ccccc1C(=O)Nc1ccc(C(=O)OCC[N+](C)(CC)CC)cc1 [OTILONIUM BROMIDE]" assayed_target="Histamine H1 receptor (Homo sapiens, UniProt P35367)" value_kind=AC50 recorded_result="19 µM"
compound="Cc1cc(-c2ccccc2)nnc1NCCN1CCOCC1 [MINAPRINE]" assayed_target="Histamine H1 receptor (Homo sapiens, UniProt P35367)" value_kind=AC50 recorded_result="> 10 µM"
compound="[H]/N=C(/N)c1ccc(NCc2nc3cc(C(=O)N(CCC(=O)O)c4ccccn4)ccc3n2C)cc1 [DABIGATRAN]" assayed_target="Histamine H1 receptor (Homo sapiens, UniProt P35367)" value_kind=AC50 recorded_result="> 30 µM"
compound="CCCCCCC(C)(C)c1cc(O)c2c(c1)OC(C)(C)C1CCC(=O)CC21 (stereo not drawn) [NABILONE]" assayed_target="Histamine H1 receptor (Homo sapiens, UniProt P35367)" value_kind=AC50 recorded_result="> 30 µM"
compound="CN(C)C(=O)OC1N=C(c2ccccc2)c2cc(Cl)ccc2N(C)C1=O (stereo not drawn) [CAMAZEPAM]" assayed_target="Histamine H1 receptor (Homo sapiens, UniProt P35367)" value_kind=AC50 recorded_result="> 10 µM"
compound="CCCCCOC(=O)Nc1nc(=O)n([C@@H]2O[C@H](C)[C@@H](O)[C@H]2O)cc1F [CAPECITABINE]" assayed_target="Histamine H1 receptor (Homo sapiens, UniProt P35367)" value_kind=AC50 recorded_result="> 30 µM"
compound="COc1cc(Nc2c(C#N)cnc3cc(OCCCN4CCN(C)CC4)c(OC)cc23)c(Cl)cc1Cl [BOSUTINIB]" assayed_target="Histamine H1 receptor (Homo sapiens, UniProt P35367)" value_kind=AC50 recorded_result="> 10 µM"
compound="C1=Cc2cccc(OCC3CNCCO3)c2C1 (stereo not drawn) [INDELOXAZINE]" assayed_target="Histamine H1 receptor (Homo sapiens, UniProt P35367)" value_kind=AC50 recorded_result="17 µM"
compound="N[C@@H](C(=O)N[C@@H]1C(=O)N2C(C(=O)O)=C(Cl)CS[C@H]12)c1ccccc1 [CEFACLOR ANHYDROUS]" assayed_target="Histamine H1 receptor (Homo sapiens, UniProt P35367)" value_kind=AC50 recorded_result="> 30 µM"
compound="CC/C=C\\C/C=C\\C/C=C\\CCCCCCCC(=O)O [LINOLENIC ACID]" assayed_target="Histamine H1 receptor (Homo sapiens, UniProt P35367)" value_kind=AC50 recorded_result="> 30 µM"
compound="CC(C)[N+](C)(CCC(C(N)=O)(c1ccccc1)c1ccccc1)C(C)C [ISOPROPAMIDE]" assayed_target="Histamine H1 receptor (Homo sapiens, UniProt P35367)" value_kind=AC50 recorded_result="> 10 µM"
compound="CN1CCCN=C1COC(=O)C(O)(c1ccccc1)C1CCCCC1 (stereo not drawn) [OXYPHENCYCLIMINE]" assayed_target="Histamine H1 receptor (Homo sapiens, UniProt P35367)" value_kind=AC50 recorded_result="0.99 µM"
